- Tested on: MS2 coat protein
- TEST PROTOCOL: apparent KD of MS2 coat protein; higher = weaker reporter binding
- ASSAY SETUP: Eterna round: R107; input ligand: theophylline 20 uM
ASSAY READOUT: apparent KD of MS2 coat protein

UGACAUUGCUCAGAUACCAGACAUGAGGAUCACCCAUGUACCAAGAGUACAAAUUAAAAUGUCCCUUGGCAGCUGAGCAAUGUCU [TheoBX 7 #MS2Left #Theo2]: 37.8 nM
UACCGAUGAAGAAGGAGCGAUUUUAUGUUACAUGAGGAUCACCCAUGUGGACUAGGUGAAGAUCAGGUAGGUCGCUUCAUCGGUA [SSAB NP+V+V2 #20]: 31.9 nM
GGGUACAUCGCGGCCGCCACUCAUGUAAAUACCUGAGGAUCACCCUGGUCGAUGGAGACAUCGAAGAGGACCGGGUGAUGUACCG: 371 nM
AAACGUUGCUCAGAUACCAGACAUGAGGAUCACCCAUGUACCAAGGUACCCGAAAGGAAUGUCCCUUGGCAGCUGAGCAACGAAA [MAT - Exclusion Theophlline B - Mod of Eli - D21]: 11.9 nM
UUGGCAGCAUGGGUGGCUGCCAAGGCUGAUACCAGCCACGAAAGUGGCCCUUGGCAGCAGCAAACAUGAGGAUCACCCAUGUUAA [(T)''-(M)'-(T)'-(Theo)-(Ms2)_Design3]: 105 nM

## Input What apparent KD of MS2 coat protein appears in the records for this sequence with MS2 coat protein? AAUUUGUCGGGUGAUACCAGCCUCGGCGCAUCUCGCGCUGAACAUGAGGAUCACCCAUGUGGCCCUUGGCAGCACAUGACAAAUC [Veerdira]
## Output 587 nM

## Input What apparent KD of MS2 coat protein appears in the records for this sequence with MS2 coat protein? GCUUGGGUCGCAAGGCCCUGGCGUUGCGAUACCAGCACGGUAACGUGCCCUUGGCAGCGCACAUGAGGAUCACCCAUGUGGUGCG [#1 Exclusion - Theophylline A Attempt #22 (HarryS)]
## Output 27.8 nM

Data origin: the supplement of paper PMC9170038
